Test: endothelial E-selectin expression blockers – imaging, HUVEC, immunofluorescence, MLSMR starter and 10KST1 sets, primary screen (AID 487);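 also: 100% = median nuclei count of all wells on the same plate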
Settings: HUVEC TNFalpha-induced E-selectin immunofluorescence imaging, at 2 µM; measured here: cell number, toxicity
Consider the following molecules and their measured nuclei count readings.

molecule	nuclei count
O=C(NCCN1CCOCC1)c1ccc2c(c1)N(Cc1ccccc1F)C(=O)CS2	111%
Cc1ccccc1-c1nc(CN2CCC(C(=O)NCc3cccnc3)CC2)c(C)o1	119%
CCn1ncc(C2=NOC(C(=O)Nc3ccc4c(c3)OCO4)C2)c1C (stereo unspecified)	112%
COC(=O)C(C#N)C(=C1C(=O)CC(C)(C)CC1=O)c1ccc(O)cc1 (stereo unspecified)	109%
Cc1ccc(N(C(=O)c2ccncc2)C2C=CS(=O)(=O)C2)cc1 (stereo unspecified)	117%
CCOc1ccc2nc(SCC#N)c(C#N)cc2c1	114%
O=C(NC1CCCCCCC1)C1CCN(c2nc3ccccc3o2)CC1	116%
COC(=O)CCN(C(=O)c1ccc2c(c1)OCO2)c1ccccn1	89.7%
CCOCCn1c(CN2CCC(Cc3ccccc3)CC2)nc2c1c(=O)n(C)c(=O)n2C	108%
O=c1[nH]c2ccccc2nc1NCCN1CCOCC1	134%
COc1ccc(N(CC(=O)N2CCCCC2)S(=O)(=O)c2ccccc2)c(OC)c1	132%
CC(C)CN(CC(C)C)c1nc(N)c(C#N)c(CC#N)c1C#N	120%
Cc1cc(Nc2ccccc2F)n2ncnc2n1	111%
CCCN1CCN(C(=O)c2cn(CC(C)C)c(=O)c3cc(OC)c(OC)cc23)CC1	105%
CC1CCCN(C(=O)CN2CCN(C(=O)c3ccco3)CC2)C1 (stereo unspecified)	152%
CC(C)CN(CC(C)C)C(=O)C12CCC(C)(C(=O)C1)C2(C)C (stereo unspecified)	115%
COc1ccc(CCNC(=O)c2cc(C(C)C)on2)cc1OC	110%
CN(Cc1cnn(C)c1)C(=O)c1cc2ccccc2oc1=O	98.2%
COC(=O)CCc1c(C)c(C#N)c2nc3ccccc3n2c1N1CCCC1	159%
O=C(Cc1c(F)cccc1Cl)Nc1ccncc1	124%
O=C(NCc1ccc2c(c1)OCO2)C1CCCN(S(=O)(=O)c2cccc3cccnc23)C1 (stereo unspecified)	104%
O=C1CC(c2ccsc2)c2cc3c(cc2N1)OCCO3 (stereo unspecified)	129%
O=C(Nc1ccccc1C(=O)N1CCOCC1)c1cccc(S(=O)(=O)N2CCCC2)c1	118%
Cc1n[nH]c(C)c1N1C(=O)c2cccc3cc(Br)cc(c23)C1=O	123%
N#CC1=C(SCc2ccccc2)NC(=O)C(C#N)C12CCCC2 (stereo unspecified)	86.6%
O=C(O)COc1cccc(NC(=O)C2CCCO2)c1 (stereo unspecified)	90%
COc1ccc(C)cc1NC(=O)CCN1CCCC1	109%
COc1ccc(OC)c(Nc2nc(-c3cccs3)cs2)c1	110%
O=C(Nc1ccc(Cl)cc1)N1CCSCC1	84.1%
COc1cc2c(cc1OC)C(c1ccccc1O)N(C1CC(=O)N(c3ccccc3)C1=O)CC2 (stereo unspecified)	123%
O=C(COC(=O)c1ccc(Br)o1)Nc1ccc(S(=O)(=O)N2CCCC2)cc1	130%
CC(=O)Nc1ccc(Cc2ccncc2)cc1	115%
Cc1nc2ccccc2n1CCC(=O)Nc1cccc(F)c1	110%
O=C(CC(CC(=O)c1ccccc1)C(=O)O)c1ccccc1	109%
CC(=O)c1cc2c(=O)c3cc(C)ccc3oc2nc1C	187%
Cc1cc(C)cc(NC(=O)CN(C)S(=O)(=O)c2cnc[nH]2)c1	100%
